The reported numbers originate from patent US11000511B2.

target-entity: LasB elastase activity in dialysed supernatant from P. aeruginosa strain PA01 (Pseudomonas aeruginosa, UniProt P14756)
Construct: uses as source of enzyme dialysed supernatant from P. aeruginosa; endogenous in cells; host or cells: P. aeruginosa strain PA01 culture supernatant, filtered and dialysed
Sequence (P14756 198-498): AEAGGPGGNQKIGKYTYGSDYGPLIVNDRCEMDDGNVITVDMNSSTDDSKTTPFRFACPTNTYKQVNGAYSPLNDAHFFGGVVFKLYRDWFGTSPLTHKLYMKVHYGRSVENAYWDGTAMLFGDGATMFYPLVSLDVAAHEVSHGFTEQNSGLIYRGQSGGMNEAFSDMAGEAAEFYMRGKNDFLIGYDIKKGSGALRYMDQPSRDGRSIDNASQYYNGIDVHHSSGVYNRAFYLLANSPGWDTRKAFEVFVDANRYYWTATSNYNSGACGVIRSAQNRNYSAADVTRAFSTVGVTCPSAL
procedure-text: Elastin Congo Red assay to determine % inhibition (Assay 1)
Format: biochemical
measurement-conditions: read-out: Elastin hydrolysis % inhibition @ 50/25 μM inhibitor concentration Assay 1
readout-type: inhibition at 50 µM

{"test-smiles": "NCCNc1ccc2nc(CNC(=O)C3(CC(=O)O)Cc4ccccc4C3)sc2c1", "readout-type": "inhibition at 50 µM", "test-result": "> 60%"}
{"test-smiles": "C[N+](C)(C)C1CN(c2ccc3nc(CNC(=O)C4(CC(=O)[O-])Cc5ccccc5C4)sc3c2)C1", "readout-type": "inhibition at 50 µM", "test-result": "30 to 60%"}
{"test-smiles": "CC(C)(C)OC(=O)[C@H](Cc1c[nH]c2ccccc12)NC(=O)C1(CC(=O)O)Cc2ccccc2C1", "readout-type": "inhibition at 50 µM", "test-result": "> 60%"}

Note: attention shifts to another entry.
Lab book: inhibition at 50 µM of O=C(O)CC1(C(=O)NCc2nc3c(Br)cccc3s2)Cc2ccccc2C1 noted as > 60%
